# Tested on: Fibroblast
# EXPERIMENTAL PROTOCOL: Multiplex assay against human fibroblast
# Type: toxicity, cell-based
# MEASUREMENT CONDITIONS: 24 h, 10 µM, compound concentration 10 uM, replicate 2
Hi all, reminder that labels come from Population Mitotic Cells (%), split as bin A: < 20%; bin B: ≥ 20% and < 50%; bin C: ≥ 50%

Query block: For "COc1ccccc1CN[C@H]1C2CCN(CC2)[C@H]1C(c1ccccc1)c1ccccc1" , which Population Mitotic Cells (%) bin applies?
Result block: bin C

Query block: For "CC(C)(C)NC[C@H](O)COc1nsnc1N1CCOCC1" , which Population Mitotic Cells (%) bin applies?
Result block: bin C

Query block: For "CC(C)c1noc(N2CCC(COc3ccc(-c4ccc(S(C)(=O)=O)cc4)nc3)CC2)n1" , which Population Mitotic Cells (%) bin applies?
Result block: bin C

Query block: For "Cc1c[nH]c2nccc(Oc3c(F)cc(Nc4cc(Cl)nc(N)n4)cc3F)c12" , which Population Mitotic Cells (%) bin applies?
Result block: bin B

Query block: For "CCCSc1nc(N[C@@H]2C[C@H]2c2ccc(F)c(F)c2)c2nnn([C@@H]3C[C@H](OCCO)[C@@H](O)[C@H]3O)c2n1" , which Population Mitotic Cells (%) bin applies?
Result block: bin A

Query block: For "COc1ccc(-c2ccc3ncc4c(c3c2)n(-c2ccc(N3CCNCC3)c(C(F)(F)F)c2)c(=O)n4C)cn1.O=C(O)/C=C\C(=O)O" , which Population Mitotic Cells (%) bin applies?
Result block: bin A

Query block: For "O=c1cc(N2CCOCC2)oc2c(-c3cccc4c3sc3ccccc34)cccc12" , which Population Mitotic Cells (%) bin applies?
Result block: bin B

Query block: For "CN1CCN(Cc2ccc(Nc3ncc(Cl)c(Nc4ccccc4S(=O)(=O)N(C)C)n3)cc2)CC1" , which Population Mitotic Cells (%) bin applies?
Result block: bin A

Query block: For "CC(C)CC(=O)Nc1[nH]nc2c1CN(C(=O)C1CCN(C)CC1)C2(C)C" , which Population Mitotic Cells (%) bin applies?
Result block: bin A

Query block: For O=C(c1cc2c(cc1F)OC(c1ccc(F)cc1)(c1ccc(Cl)cc1Cl)O2)N1CCOCC1 (configuration not stated) , which Population Mitotic Cells (%) bin applies?
Result block: bin B

Query block: For "C=CC(=O)Nc1ccc2[nH]c(=O)n(C3CCN(Cc4ccc(-c5nc6cc[nH]c(=O)c6cc5-c5ccccc5)cc4)CC3)c2c1" , which Population Mitotic Cells (%) bin applies?
Result block: bin C

Query block: For "CCc1ccc(OCc2ccccc2C(=O)Nc2ccc3nc(C)cc(N)c3c2)cc1.Cl" , which Population Mitotic Cells (%) bin applies?
Result block: bin B

Query block: For CC1=C(C(=O)Nc2cc3cn[nH]c3cc2F)C(c2ccc(C(F)(F)F)cc2)CC(=O)N1 (configuration not stated) , which Population Mitotic Cells (%) bin applies?
Result block: bin B

Query block: For "CC(C)OC(=O)N1CCC(Oc2ncnc3c2cnn3-c2ccc(S(C)(=O)=O)cc2F)CC1" , which Population Mitotic Cells (%) bin applies?
Result block: bin C

Query block: For "O=c1[nH]c2ccccc2n1C1CCN(Cc2ccc(-c3[nH]c4cc5ncnc5cc4nc3-c3ccccc3)cc2)CC1" , which Population Mitotic Cells (%) bin applies?
Result block: bin B

Query block: For "C=CC(=O)Nc1cccc(Sc2nc(Nc3ccc(N4CCN(C)CC4)cc3)ncc2Cl)c1" , which Population Mitotic Cells (%) bin applies?
Result block: bin A

The values you see were collected from ChEMBL document CHEMBL4689842.
